tested on: VDR:RXRa (NR concentration 270 nM, RXRa partner concentration 90 nM); experiment: PBM binding z-score (relative to random genomic background probes); higher = stronger binding; sequences stand for … in GC…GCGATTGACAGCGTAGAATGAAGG

input sequence | PBM binding z-score
ACTATTAGTTGAGACGAGGGCAAGCGATAGGTTG | 0.29
ACTATTAGGTGAGACGAGGGCAACCGATAGGTTG | 1.77
TGTCATAGTTCAAAGGTAACGTAAGTATCCACAC | 2.96
TGTAGTTGGTCAAAGGTCACACACTCGAAATGCG | 5.19
CAGACTAGGTCACCGGAAGGTCAAAGTCCGCATG | 5.78
TCTAGTTGGTCAAGGGTCACACACTCGAAATGCG | 4.32

----------
system: RARa:RXR (NR concentration 270 nM, RXRa partner concentration 90 nM); test: PBM binding z-score (relative to random genomic background probes); higher = stronger binding; sequences stand for … in GC…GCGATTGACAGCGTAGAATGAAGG
Categorized via PBM binding z-score: bucket 1 (below 1), bucket 2 (1 to below 3), bucket 3 (3 or more)

input sequence | cat
TGTCAAAGTTCAAGGGTAACGTAAGTATCCACAC | bucket 3
ATCTCTAGGTAAAGATCGTTCAGTGAATGCAAAT | bucket 1
CCGACTGGGGCAAAGGTTACCAGACTCAGTACGA | bucket 3
GCGACTGGGGCATTAGCAGGTTACCATAACTTAA | bucket 1
TTACCAAGGTGAAAGGTCGTAGATGCACGCCTTG | bucket 3
ACTATTAGTTGAGATGAGGGCAACCGATAGGTTG | bucket 1
CCTAGCAGGCCAACCTGGGTCACTCAAGGCTTGA | bucket 2
CCTAGTTGGTCAAGGTCACTCACGCTATAGGTAC | bucket 3
TTACCACGGTGAGCTGAGGTCGTTGATCCAACTC | bucket 2
TCGAGTAGGTTACCAATGGGGCATTAAGCTTTCT | bucket 1
TAGCCTAGGTCATTGGGCCAGTATGGTACGCATC | bucket 2
GCGACTAGGGCATCAGCAGGTTACCATAACTTAA | bucket 1
ATTTCTAGGTAAGACTCAGTTCAGTGAAGAACGC | bucket 1
CGAACTAGGTCATTCACAGGACAGTGAATAGTAA | bucket 2
GCGACTGGGGCAAAGCAGGTTAGCATAAGGTTGG | bucket 1
AGAACGAGGTTAAGATCAGGGAAACAGAATACAT | bucket 2
CCTAGTTGATCAAGGTCACACACGCTATAGGTAC | bucket 3
CCTTACGGGTCACTGACATGTTATAGCATTTGGA | bucket 3
CGTCCAAGGTCTATGCTAGGTCAGTGAAAGCATT | bucket 2
TCGGGTAGGTTAGGGGCATTCAGAATGGCGTCGA | bucket 2
ACTATTAGTAGAGACGAGGGCAACCGATAGGTTG | bucket 1
CATACAGGGTCAGCTAGGCCAGAGTCGGGACGGC | bucket 3
CATACTGGGCCACGAAAGGTCATTGATTCAGTGA | bucket 3
ATCCCTAGGTAAAAGTTCAGTGAATCCCGAGGAT | bucket 2
CCTACTGGGCAAAGGTCATTGATCAGTCAAAGCA | bucket 3
CCTGACGGGTCAAGGTTATAGCACGGGTGGTACG | bucket 3
CGTCCTAGGTCAGCAGGTCAGTGAAAGCGACGTG | bucket 2
CCGACTGGGGCAAATGTTACCATACTCAGTACGA | bucket 1
TAGCCTGGGTCATTGGGCCAGTATAGTACGCATC | bucket 2
ATCTCTAGGTAAAGATAGTTCAGTTAATGCAAAT | bucket 1
CCTACTGGGGCATAAGGTTACCATAAGCCAGCCC | bucket 2
ACTAGCAGGCCAAGGGGCACTCAAGATTAGTCCG | bucket 1
CGTCCAAGGCCAAGGTCAGTGAAAGAGACTCGAA | bucket 2
CTACCAAGGTGAACGAGGTCGTTGATTACTATTC | bucket 2
TAGCCTAGGTAAGATCGGGCCAGTATACGCTATA | bucket 1
TCTAGCAGGCCAGAGGGTCACTCGAGAGGTACGG | bucket 2
TGAATGAGGTTATAAGTTCAGGGAACGTTGCAAA | bucket 3
TAGCCTAGGTCATTAGGCCAGTATAGTACGCATC | bucket 2
ACAGACAGGTGAGTGAAGCTAACTCAGCTGGACG | bucket 1
TGAATGAGGTTAAAGATCAGAGAACGTGGCGTCG | bucket 3
GCGACTGGGGCATCAGCAGATTACCATAACTTAA | bucket 1
TGTCAAAGTTCAAATGTAACGTAAGTATCCACAC | bucket 3
CGAACTAGGTCAAGGACAGTTAATCTCCGCACGC | bucket 2
TCTTGAAGATCAAAGGTTAAGAAAGCCGAAGCCT | bucket 3
TCTAGCAGGCGAGAGGGTCACTCAAGAGGTACGG | bucket 2
CCTAATGGGCCAAGGTCATTGATCAGTCAAAGCA | bucket 3
TTACCAGGGTGAGCTGAGGTCGTTGATCCAACTC | bucket 2
GGAACGAGGGCAAGTTGATAGCTGAGTTTGATGG | bucket 1
ACTTACGGGTCATCGAGGTTATAGCACGCGTATA | bucket 3
CCTTACGTGTCACTGACAGGTTATAGCATTTGGA | bucket 2
